Assay: Biodistribution in mouse Cloudman S91 tumor bearing DBA2 mouse spleen at 10 mg/kg, ip after 6 hrs
Format: ADME, organism-based
Design: dose 10 mg/kg, route intraperitoneal
Conditions: read-out: Drug uptake

CPD_SMILES	concentration at 6 h [ng/g]
CCNS(=O)(=O)c1ccc(Cl)c(-c2c3nc(c(-c4c(Cl)ccc(S(=O)(=O)NCC)c4Cl)c4ccc([nH]4)c(-c4c(Cl)ccc(S(=O)(=O)NCC)c4Cl)c4nc(c(-c5c(Cl)ccc(S(=O)(=O)NCC)c5Cl)c5ccc2[nH]5)CC4)CC3)c1Cl	7000

* * *

Experiment: Biodistribution in mouse Cloudman S91 tumor bearing DBA2 mouse muscle at 10 mg/kg, ip after 24 hrs
Format: ADME, organism-based, Muscle tissue
Parameters: dose 10 mg/kg, route intraperitoneal
Settings: read-out: Drug uptake

CPD_SMILES	concentration at 24 h
CCNS(=O)(=O)c1ccc(Cl)c(-c2c3nc(c(-c4c(Cl)ccc(S(=O)(=O)NCC)c4Cl)c4ccc([nH]4)c(-c4c(Cl)ccc(S(=O)(=O)NCC)c4Cl)c4nc(c(-c5c(Cl)ccc(S(=O)(=O)NCC)c5Cl)c5ccc2[nH]5)CC4)CC3)c1Cl	130 ng/g

The origin of these recorded values is ChEMBL document CHEMBL3217712.
